For each entry below, report its RLU value.
# experimental target: human TAS2R1 (Homo sapiens, UniProt Q9NYW7)
# Construct: expressed in transfected cells; host or cells: HEK293T-Gα16gust44
# Sequence (Q9NYW7 whole entry): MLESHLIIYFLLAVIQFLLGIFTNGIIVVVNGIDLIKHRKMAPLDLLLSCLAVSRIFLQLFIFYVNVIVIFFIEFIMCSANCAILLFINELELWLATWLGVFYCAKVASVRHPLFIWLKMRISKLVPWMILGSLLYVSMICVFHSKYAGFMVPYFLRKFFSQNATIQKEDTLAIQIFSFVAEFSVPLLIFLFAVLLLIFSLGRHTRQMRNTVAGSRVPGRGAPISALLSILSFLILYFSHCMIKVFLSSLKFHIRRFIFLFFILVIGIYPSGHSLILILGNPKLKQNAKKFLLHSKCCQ
# test protocol: Calcium imaging assay (FLIPR), HEK293T-Gα16gust44 cells transfected with human TAS2R1
# Type: cell-based
# condition description: Time 4 s
# Description: This set of bile acids was chosen because of their commercial availability in high purities, their diversity within the class of bile acids and their previous detection and quantitation in human blood. Stock solutions were prepared in DMSO. […] Measured data were negative control corrected by subtracting the signal of the mock-transfected cells and exported to Microsoft Excel using the FLIPR software ScreenWorks 4.2. […]
One number for each entry, in RLU.

Consider the following illustrative entries.
compound string: C[C@H](CCC(=O)NCCS(=O)(=O)O)[C@H]1CC[C@H]2[C@@H]3CC[C@@H]4C[C@H](O)CC[C@]4(C)[C@H]3CC[C@]12C
experimental target: human TAS2R1 (Homo sapiens, UniProt Q9NYW7)
RLU / RLU: 34.6882

compound string: C[C@H](CCC(=O)NCCS(=O)(=O)O)[C@H]1CC[C@H]2[C@@H]3[C@H](O)C[C@@H]4C[C@H](O)CC[C@]4(C)[C@H]3C[C@H](O)[C@]12C
experimental target: human TAS2R1 (Homo sapiens, UniProt Q9NYW7)
RLU / RLU: 20.145

compound string: C[C@H](CCC(=O)NCC(=O)O)[C@H]1CC[C@H]2[C@@H]3[C@H](O)C[C@@H]4C[C@H](O)CC[C@]4(C)[C@H]3C[C@H](O)[C@]12C
experimental target: human TAS2R1 (Homo sapiens, UniProt Q9NYW7)
RLU / RLU: -10.9328

# context switch: different compound, same RLU
Requested read-out: RLU. Entry: `C[C@H](CCC(=O)O)[C@H]1CC[C@H]2[C@@H]3CC[C@@H]4C[C@H](O)CC[C@]4(C)[C@H]3C[C@H](O)[C@]12C`
31.4027
